- ASSAYED_TARGET: T1, human angiotensin 2 type 1 receptor (human, UniProt P30556 1-359)
- T1 sequence (looked up): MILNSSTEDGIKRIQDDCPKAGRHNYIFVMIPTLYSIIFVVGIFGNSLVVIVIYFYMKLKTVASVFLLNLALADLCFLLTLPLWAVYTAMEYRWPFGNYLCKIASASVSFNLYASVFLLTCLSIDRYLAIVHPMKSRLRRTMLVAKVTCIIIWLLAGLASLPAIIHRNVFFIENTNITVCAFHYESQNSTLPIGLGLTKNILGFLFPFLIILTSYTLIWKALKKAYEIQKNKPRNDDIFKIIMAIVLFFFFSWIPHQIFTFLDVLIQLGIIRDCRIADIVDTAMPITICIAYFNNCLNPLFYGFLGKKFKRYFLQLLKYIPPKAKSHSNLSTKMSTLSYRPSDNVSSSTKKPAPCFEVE
- ASSAY_DETAILS: cell-based or functional assay
Where no end group is shown, it is not given here. [ ]: non-standard residue; d: D form. The star is where a group is joined. Val(3-OH) = CC(C)(O)[C@H](N)C(=O)O; Ac6c = NC1(C(=O)O)CCCCC1; Aib = CC(C)(N)C(=O)O; NHiPr = CC(C)N*; Sar = CNCC(=O)O
QUANTITY_MEASURED: beta-arrestin2 assay Span

Form field beta-arrestin2 assay Span, entry [Sar]RVY[Aib]HPV [SEQ ID NO: 33 (Sar-Arg-Val-Tyr-AA01-His-Pro-Val)] : < 101

beta-arrestin2 assay Span recorded for this binder, [Sar]RVY[Ac6c]HPF [SEQ ID NO: 17 (Sar-Arg-Val-Tyr-cyHex-His-Pro-Phe)] , is > 101

The binder [Sar]RVY[Ac6c]HP-NHiPr [SEQ ID NO: 46 (Sar-Arg-Val-Tyr-cyHex-His-Pro-NH-i-Pr)] showed beta-arrestin2 assay Span equal to < 101

Memo: [Sar]RVY[Ac6c]HP[Val(3-OH)] [SEQ ID NO: 31 (Sar-Arg-Val-Tyr-cyHex-His-Pro-AA03)] , reported beta-arrestin2 assay Span: < 101
